Target: HLA-B*5301 (human)
Test: competition with 125I probe peptide, purified HLA
Please go through the items and note down their pIC50.
One number for each entry, as −log10 of the molar value.

Please review the entries below; each comes with its answer.
[[record]]
binder = "FPLNNTTPI (analog peptide) [Her2/neu.121.F1I9]"
measurement = 7.28

[[record]]
binder = "MPNPEGRYTI (analog peptide) [Her2/neu.282.I10]"
measurement = 8.03

[[record]]
binder = "CPLHNQEVTI (analog peptide) [Her2/neu.315.I10]"
measurement = 6.56

[[record]]
binder = "LPTNASLSF (native HER2/neu peptide from position 65) [Her2/neu.65 (9-mer)]"
measurement = 7.47

[[record]]
binder = "FPNPEGRYTI (analog peptide) [Her2/neu.282.F1]"
measurement = 8.18

[[record]]
binder = "FPDLSYMPI (analog peptide) [Her2/neu.605.F1]"
measurement = 7.14

[[record]]
binder = "FPLNNTTPV (analog peptide) [Her2/neu.121.F1]"
measurement = 5.97


Shifting focus to the binder that follows.
Quick note, pIC50 for FPSGVKPDI (analog peptide) [Her2/neu.600.F1I9] landed at 6.03

Data provenance is patent US20040018971A1.
